target: Neu5Gc(a2-3)Gal(b1-3)GlcNAc; experiment: glycan array binding signal (z-score within array); higher = stronger binding; conditions: glycan notation: IUPAC condensed, linker removed
This is one part of a sample in which the strongest signals are shown more often than they occur.
Outcome label depends on glycan array binding signal (z-score) relative to -0.3: at/above gives condition met, below gives condition not met.

Solved cases (5 shown):
Enquiry: Entry LF82 (Escherichia coli) (protein) ADWGPCRTASGDPFIFVTSFTKNIQNPTDNVTGQTYPDFYQWALGDKYSGVCECPSPNPTEARPTLYKTESTLAAGHNSTYFKITNNLEVSTRVYIANVGNVQVPFINKSNSQPGRECDQPTFGWTTGSKGQLSLYIAKPFVGEQNIPQTIIVSVFGTKKENVYSSVPISQVLLSGKVTVTQGCELAAGTSLDIDFGEYQAHDFKGRTGQPPQNVQKIQKELTFNCTNISDGVHIYLSLEGTPNAAYPSAISLGNADVGAVIEDGKGNILKPNDSNSLLEMNPGSLYEYVKRKVTTTITAYPVSTTGKLPAAGDYSGVATMHVELDGGGGGGGGGGATTDLGAKGTLKFSLKISQGHHHHHH : is its glycan array binding signal (z-score) no less than -0.3?
Return: condition met

Enquiry: And the next one, SSR1 (Sclerotium rolfsii), A0A0M3KL30 (protein) TYKITVRVYQTNPDAFFHPVEKTVWKYANGGTWTITDDQHVLTMGGSGTSGTLRFHADNGESFTATFGVHNYKRWCDIVTNLAADETGMVINQQYYSQKNREEARERQLSNYQVKNAKGRNFQIVYTEAEGNDLHANLIIG ?
Return: condition not met

Enquiry: How about this binder: NakA (Mycobacterium tuberculosum) (protein) SVVKPTKVTVFSPDGGADNPGEADLAIDGNPATSWKTDIYTDPVPFPSFKNGVGLMLQLPQATVVGTVAIDVASTGTKVEIRSASTPTPATLEDTAVLTSATALRPGHNTISVEAAAPTSNLLVWISTLGTTDGKSQADISEITIYAASD
Return: condition not met

Enquiry: Param item: Tp0751, 83732 (protein) MSYYHHHHHHLESTSLYKKAGFQHGHVPPRRIPPHDTFGALPTAALPSNARDTAAHPSDTADNTSGSSTTTDPRSHGNAPPAPVGGAAQTHTQPPVQTAMRIALWNRATHGEQGALQHLLAGLWIQTEISPNSGDIHPLLFFDREHAEITFSRASVQEIFLVDSAHTHRKTVSFLTRNTAISSIRRRLEVTFESHEVIHVRAVEDVARLKIGSTSMWDGQYTRYHAGPASAPSP
Return: condition met

Enquiry: Can you handle Epa11 (Candida glabrata) (protein) MGSSHHHHHHSSGLVPRGSHMASSNAPNYPVGCSPSVGTQLTPGLSLEVYAYPMDGNNGYCWNATYKDPEFPRSGYLKNKLLGKADGVVGPLNFLAKNKDCSPKVDTLPAGFNFPQPITVTNFTMVLFGYLAPKQSGKYTFKLLADDLLLLNLGATNAFDCCNREATKNNLGEFLAYNLWPNQDKNVTVYLEKGVYYPLRLFFNNRDGGSQLDFSYYFNDSPAPLTDFSGMFFSVPDGAECPARI next?
Return: condition met

Proceed to the following item.
Enquiry: Has FaeGac (Escherichia coli) (protein) WMTGDFNGSVDIGGSITADDYRQKWEWKVGTGLNGFGNVLNDLTNGGTKLTITVTGNKPILLGRTKEAFATPVTGGVDGIPHIAFTDYEGASVVLRKPDGETNKNGLAYFVLPMKNAGGTKVGSVKVNASYAGVLGRGGVTSADGELLSLFADGLSSIFYGGLPRGSELSAGSAAAARTKLFGSLSRDDILGQIQRVNANVTSLVDVAGSYRENMEYTDGNVVSAAYALGIANGQTIEATFNQAVTTSTQWSAPLNVAITYY a recorded glycan array binding signal (z-score) greater than or equal to -0.3?
Return: condition not met
